// reported normalized growth for each item listed
method_summary: chemical genetic growth profiling, strain panel (AID 1159580);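 further: tested at 20 µM; growth read once vehicle control cultures reached saturation at 30 °C; 1 = growth at the plate median or of vehicle wells; lower values mean less growth of the strain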
experimental_parameters: S. cerevisiae deletion strains, growth OD, locus YJL168C, strain set2, hits give low values
Hit rate of the full screen: of about 5,500 compounds, about 2,000 (36%) were called active. Not shown: some 18% with an inconclusive outcome. This is one part of the list.
Lab note: jot down the number only; don't add units.

Examples with their reported normalized growth follow.
- compound: "CCCn1c(=O)c2[nH]c(C3CCCC3)nc2n(CCC)c1=O"
  measured: 0.971
- compound: "Fc1ccc([C@@H]2CCNC[C@H]2COc2ccc3c(c2)OCO3)cc1"
  measured: 1.01
- compound: "CCCCCCCCCCCCCC(=O)OC1C(C)C2(O)C(C=C(CO)CC3(O)C(=O)C(C)=CC32)C2C(C)(C)C12OC(C)=O (stereo not drawn)"
  measured: 0.993
- compound: "COc1c(C)c2c(c(O)c1C/C=C(\\C)CCC(=O)O)C(=O)OC2"
  measured: 0.979
- compound: "CC(C)/C(O)=C1/C(=O)O[C@@H](c2ccoc2)[C@]2(C)C(O)[C@@H](O)[C@@]34OC5(C)OC67CC(C)(C(O)[C@]6(O)[C@@H](O)[C@]3(O5)C12)[C@H](CC(=O)O)[C@]74C (stereo partly drawn)"
  measured: 1.01

// lookup normalized growth for CN(C)C(=O)Oc1ccc[n+](C)c1
1.01

// lookup normalized growth for COc1cc(C)c2c(=O)cc(-c3ccccc3)oc2c1
0.969

// lookup normalized growth for COc1cc2c(cc1OC)C1(O)C(=O)c3ccc(O)c(C(=O)O)c3OC1CO2 (stereo not drawn)
0.989

// lookup normalized growth for COc1ccc(-c2cc(=O)c3c(OC)cc(OC)cc3o2)cc1
0.998

// lookup normalized growth for COc1ccc2c(c1)OCC(Cc1ccc(OC)c(OC)c1)C2=O (stereo not drawn)
0.994

// lookup normalized growth for Clc1ccc(C(c2ccccc2Cl)C(Cl)Cl)cc1 (stereo not drawn)
0.988

// lookup normalized growth for Cc1onc(-c2ccccc2)c1-c1ccc(S(N)(=O)=O)cc1
0.998

// lookup normalized growth for O=C(O)CCC1NCC2CC1CN1CCCCC21 (stereo not drawn)
0.995

* * *

method_summary: chemical genetic growth profiling, strain panel (AID 1159580)
experimental_parameters: S. cerevisiae deletion strains, growth OD, locus YPL078C, strain atp4, hits give low values
About 2,000 (36%) of roughly 5,500 compounds were called active. Inconclusive results (about 18%) are left out. Some of the results follow.
value_type: normalized growth
Lab note: jot down the number only; don't add units.

// lookup normalized growth for COC1C=CC23c4cc5c(cc4CN(CC2O)[C@@H]3C1)OCO5 (stereo partly drawn)
0.986

// lookup normalized growth for CC[C@@H]1OC(=O)C[C@@H](O)[C@H](C)[C@@H](O[C@@H]2O[C@H](C)[C@@H](O)[C@H](N(C)C)[C@H]2O)[C@@H](CCN2C[C@H](C)C[C@H](C)C2)C[C@@H](C)C(=O)/C=C/C(C)=C\[C@@H]1CO[C@@H]1O[C@H](C)[C@@H](O)[C@@H](OC)[C@H]1OC
0.991

// lookup normalized growth for Cc1nnc(NS(=O)(=O)c2ccc(N)cc2)s1
0.999

// lookup normalized growth for Nc1nc(F)nc2c1ncn2[C@@H]1O[C@H](COP(=O)(O)O)[C@@H](O)[C@@H]1O
0.991

// lookup normalized growth for O=C(O)C(O)C(O)C(=O)O (stereo not drawn)
0.999

// lookup normalized growth for C[C@]12C=CC(=O)C=C1CCC1C2[C@@H](O)C[C@@]2(C)C1CC[C@]2(O)C(=O)CO (stereo partly drawn)
0.974

// lookup normalized growth for CC(C)(S)[C@@H](N)C(=O)O
1.01

// lookup normalized growth for N[C@@H](C(=O)O)[C@@H](O)[C@H](O)[C@H](O)CO
1.01

* * *

method_summary: chemical genetic growth profiling, strain panel (AID 1159580)
experimental_parameters: S. cerevisiae deletion strains, growth OD, locus YMR205C, strain PFK2, hits give low values
Among all 5,500 compounds or so, about 2,000 (36%) were called active. Roughly 18% stayed inconclusive and do not appear here. The list shows a part of the results.
// reported normalized growth for each item listed
Lab note: jot down the number only; don't add units.

- compound: "FC(F)(F)c1cccc(N2CCNCC2)c1"
  normalized growth: 0.965
- compound: "CC(=O)Oc1ccc2c(c1)CCC1C2CC[C@]2(C)C(=O)CCC12 (stereo partly specified)"
  normalized growth: 0.947
- compound: "C[C@]12CCC3c4ccc(OC(=O)c5ccccc5)cc4CCC3C1CCC2=O (stereo partly specified)"
  normalized growth: 0.949

// lookup normalized growth for CC(=O)C1CC[C@H]2C3CC[C@H]4C[C@H](O)CC[C@]4(C)C3CC[C@]12C (stereo partly specified)
1

// lookup normalized growth for CC(C)/C(O)=C1/C(=O)O[C@@H](c2ccoc2)[C@]2(C)C(O)[C@@H](O)[C@@]34OC5(C)OC67CC(C)(C(O)[C@]6(O)[C@@H](O)[C@]3(O5)C12)[C@H](CC(=O)O)[C@]74C (stereo partly specified)
0.978

// lookup normalized growth for CC1CCC(NC(=O)N(CCCl)N=O)CC1 (stereo unspecified)
0.728

// lookup normalized growth for NC(N)=NCCCCN=C(N)N
1.03

// lookup normalized growth for c1ccc2c(CC3=NCCN3)cccc2c1
0.987

* * *

method_summary: chemical genetic growth profiling, strain panel (AID 1159580);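 further: tested at 20 µM; growth read once vehicle control cultures reached saturation at 30 °C; 1 = growth at the plate median or of vehicle wells; lower values mean less growth of the strain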
experimental_parameters: S. cerevisiae deletion strains, growth OD, locus YJR016C, strain ILV3, hits give low values
Screen size: about 5,500 compounds; about 2,000 (36%) were called active. Another 18% or so got no clear call; they are omitted. The list shows a part of the results.
// reported normalized growth for each item listed
Lab note: jot down the number only; don't add units.

Examples with their reported normalized growth follow.
- compound_structure: "O=C(NNc1ccccc1)c1cc(-c2ccc(Cl)cc2)oc1C(F)(F)F"
  normalized growth: 0.95
- compound_structure: "CNC(=O)Sc1c(-c2ccc(Cl)cc2)nn(C(=O)NC)c1SC"
  normalized growth: 0.969
- compound_structure: "O=C(Nc1cc(Cl)ccc1O)c1ccccc1CSc1ccc(Cl)cc1"
  normalized growth: 0.987
- compound_structure: "CC1=CC(=O)N(c2ccc(OC(F)(F)F)cc2)C1=O"
  normalized growth: 0.862
- compound_structure: "Cc1noc(C)c1S(=O)(=O)Nc1csc(C(F)(F)F)c1-c1ccccc1"
  normalized growth: 0.982

// lookup normalized growth for O=S(=O)(NCc1ccc(C(F)(F)F)cc1)c1cc(Br)c(Br)s1
0.98

// lookup normalized growth for Clc1ccccc1-c1csc(-c2cccnc2)n1
0.902

* * *

method_summary: chemical genetic growth profiling, strain panel (AID 1159580);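 further: tested at 20 µM; growth read once vehicle control cultures reached saturation at 30 °C; 1 = growth at the plate median or of vehicle wells; lower values mean less growth of the strain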
experimental_parameters: S. cerevisiae deletion strains, growth OD, locus YHR142W, strain chs7, hits give low values
In all, about 5,500 compounds went through this assay and about 2,000 (36%) were called active. About 18% were inconclusive and are not listed. Some of the results follow.
// boundary case: normalized growth equal to 1 maps to no (0); strictly smaller maps to yes (1)

- compound: "CC(=O)O[C@H]1C[C@@]2(C)[C@@H](C[C@@H](O)C3[C@]2(C)CC[C@H]2[C@H](C)[C@H](O)CC[C@]32C)/C1=C(/CCC=C(C)C)C(=O)O (some centres undefined)"
  label_class: "no (0)"

Now for a further compound.
Could you please tell me whether normalized growth recorded for CCCCC(=O)O[C@]1(C(=O)CO)CCC2C3CCC4=CC(=O)CC[C@]4(C)C3[C@@H](O)C[C@@]21C (some centres undefined) is less than 1?
yes (1)

* * *

method_summary: chemical genetic growth profiling, strain panel (AID 1159580);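 further: tested at 20 µM; growth read once vehicle control cultures reached saturation at 30 °C; 1 = growth at the plate median or of vehicle wells; lower values mean less growth of the strain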
experimental_parameters: S. cerevisiae deletion strains, growth OD, locus YMR001C, strain CDC5
Out of some 5,500 compounds screened, about 2,000 (36%) were called active. Roughly 18% stayed inconclusive and do not appear here. Cut-off read from the data, not from the text of the source: active = normalized growth mostly below about 0.91 (no sharp cut-off); inconclusive = no clear call, values can overlap the other calls; inactive = mostly above about 0.92. The list shows a part of the results.
Lab note: assign the record to one of active, inactive

These recorded examples may help you get a feel for the data.
- compound: "Cc1ccccc1/C=C/c1c[nH]c2ccccc12"
  label_class: "inactive"
- compound: "O=S(=O)(Nc1cc(Cl)c(Cl)cc1Cl)c1cc(C(F)(F)F)cc(C(F)(F)F)c1"
  label_class: "inactive"
- compound: "O=S(=O)(NCc1ccc(C(F)(F)F)cc1)c1cc(Br)c(Br)s1"
  label_class: "inactive"
- compound: "CC(C)(C)C1=C(C#N)C(c2c(Cl)cccc2Cl)C(C#N)=C(N)O1 (stereo not given)"
  label_class: "inactive"
- compound: "CC1=CC(=O)N(c2ccc(OC(F)(F)F)cc2)C1=O"
  label_class: "active"

Tell me the recorded outcome of this test for COc1ccc(Nc2nc(NC(=O)Nc3ccc(Cl)cc3)n[nH]2)cc1 .
inactive

Tell me the recorded outcome of this test for O=[N+]([O-])c1ccsc1Oc1cccc(C(F)(F)F)c1 .
inactive

Tell me the recorded outcome of this test for CN(C)c1ccc(/C=C/c2ccc3ccccc3[n+]2C)cc1 .
inactive
